The reported measurements were obtained from ChEMBL document CHEMBL3272058.

- System: C6
- measurement protocol: Drug uptake in rat C6 cells assessed as cAMP level per of protein at 10^-4 M after 90 mins
- Format: ADME, cell-based
- applied conditions: c6, 1.5 h, 100 µM
Recorded Activity, one value per entry.
Number in pmol/mg, nothing else.

- structure: "NC[C@H](O)c1ccc(O)c(O)c1.O=C(O)C(O)C(O)C(=O)O"
  target or system: "C6"
  Activity (pmol/mg): 250

Answer with reported Activity of Cc1ccc(CO[P@@]2(=O)OC[C@H]3O[C@@H](n4cnc5c(N)ncnc54)[C@H](O)[C@@H]3O2)cc1
70

----------
- Tested on: C6
- measurement protocol: Drug uptake in rat C6 cells assessed as cAMP level per of protein at 10^-3 M after 90 mins
- Assay type: ADME, cell-based
- applied conditions: c6, 1.5 h, 1000 µM
experimental readout: Activity (pmol/mg)
Number in pmol/mg, nothing else.

Provide Activity, tested on C6, for Cc1ccc(CO[P@@]2(=O)OC[C@H]3O[C@@H](n4cnc5c(N)ncnc54)[C@H](O)[C@@H]3O2)cc1 .
225
